System: SK-MEL-5 melanoma
experiment: NCI-60 one-dose screen, 48 h (100 = growth as untreated, 0 = no growth, -100 = all killed)
run_conditions: 10 µM unless noted
Description: Growth inhibition of the SK-MEL-5 human tumor cell line is measured as a screen for anti-cancer activity. Cells are grown in 96 well plates and exposed to the test compound for 48 hours. Compounds are tested at a single concentration, which is 10^-5 M for most compounds. The reported endpoint is percent growth (GI% or GIPRCNT), where numbers from 0 - 100% represent growth inhibition, and numbers from -100% - 0 represent cell death. For example, a value of 40 represents 60% growth inhibition. […]
About 83,000 compounds went through this panel and 20% of them were active in at least one assay; those are over-represented in the sample as a whole.
# growth >= -60% gives MET, anything below gives NOT MET

Check if growth >= -60% (inclusive). Item: CC12CCCC(CC(=O)c3[nH]c4ccccc4c31)C2 (stereo unspecified)
MET

Quick check, growth >= -60%? COc1ccc2c(c1)NC1=C(C(=O)OC1)C2c1cc(OC)c2c(c1)OCO2 (stereo unspecified)
MET

Decide: is the reported value of growth for O=[N+]([O-])c1ccc(C(c2ccccc2)c2ccccc2)cc1 equal to or greater than -60%?
MET

Say whether Nc1cc2c(cc1C(=O)c1cccc(F)c1)OCCO2 shows growth of -60% or more.
MET

Tell me whether growth is at least -60% here: CCCCN(CCCC)c1ccc(C(=N)c2ccc(N(CCCC)CCCC)cc2)cc1
NOT MET

hey, is growth for this one >= -60%? COc1cc(-c2nn(-c3cccc(NC(=O)Nc4cc(C(F)(F)F)cc(C(F)(F)F)c4)c3)cc2-c2ccncc2)ccc1Cl
NOT MET

Check the entry CCCN=C1NC(=O)/C(=C/c2nc(-c3ccc(OC)cc3)n3ccccc23)S1 : does growth equal or exceed -60%?
MET

hey, is growth for this one >= -60%? C=C[C@@H]1C[C@@H]2Cc3cc(Cl)ccc3N1O2
MET

# bool: growth of CCN(CC)CCOc1ccc(/C(=C(/C)c2ccccc2)c2ccc(OC(C)=O)cc2)cc1 >= -60%
MET

Answer whether growth of CCCCCCCCCCCCCCCCCCNC(=O)[C@H]1CSC(c2cccs2)N1 (stereo partly specified) is greater than or equal to -60%.
NOT MET

Threshold query (growth >= -60%) on COc1ccc(C2=Nn3c(nnc3-n3nc(C)cc3C)SC2)cc1
MET
